Biological target: ΔF508-CFTR (Homo sapiens, UniProt P13569, DEL508-508)
Construct: expressed in transfected cells
Sequence (P13569 with tags, fused parts or gaps DEL508-508): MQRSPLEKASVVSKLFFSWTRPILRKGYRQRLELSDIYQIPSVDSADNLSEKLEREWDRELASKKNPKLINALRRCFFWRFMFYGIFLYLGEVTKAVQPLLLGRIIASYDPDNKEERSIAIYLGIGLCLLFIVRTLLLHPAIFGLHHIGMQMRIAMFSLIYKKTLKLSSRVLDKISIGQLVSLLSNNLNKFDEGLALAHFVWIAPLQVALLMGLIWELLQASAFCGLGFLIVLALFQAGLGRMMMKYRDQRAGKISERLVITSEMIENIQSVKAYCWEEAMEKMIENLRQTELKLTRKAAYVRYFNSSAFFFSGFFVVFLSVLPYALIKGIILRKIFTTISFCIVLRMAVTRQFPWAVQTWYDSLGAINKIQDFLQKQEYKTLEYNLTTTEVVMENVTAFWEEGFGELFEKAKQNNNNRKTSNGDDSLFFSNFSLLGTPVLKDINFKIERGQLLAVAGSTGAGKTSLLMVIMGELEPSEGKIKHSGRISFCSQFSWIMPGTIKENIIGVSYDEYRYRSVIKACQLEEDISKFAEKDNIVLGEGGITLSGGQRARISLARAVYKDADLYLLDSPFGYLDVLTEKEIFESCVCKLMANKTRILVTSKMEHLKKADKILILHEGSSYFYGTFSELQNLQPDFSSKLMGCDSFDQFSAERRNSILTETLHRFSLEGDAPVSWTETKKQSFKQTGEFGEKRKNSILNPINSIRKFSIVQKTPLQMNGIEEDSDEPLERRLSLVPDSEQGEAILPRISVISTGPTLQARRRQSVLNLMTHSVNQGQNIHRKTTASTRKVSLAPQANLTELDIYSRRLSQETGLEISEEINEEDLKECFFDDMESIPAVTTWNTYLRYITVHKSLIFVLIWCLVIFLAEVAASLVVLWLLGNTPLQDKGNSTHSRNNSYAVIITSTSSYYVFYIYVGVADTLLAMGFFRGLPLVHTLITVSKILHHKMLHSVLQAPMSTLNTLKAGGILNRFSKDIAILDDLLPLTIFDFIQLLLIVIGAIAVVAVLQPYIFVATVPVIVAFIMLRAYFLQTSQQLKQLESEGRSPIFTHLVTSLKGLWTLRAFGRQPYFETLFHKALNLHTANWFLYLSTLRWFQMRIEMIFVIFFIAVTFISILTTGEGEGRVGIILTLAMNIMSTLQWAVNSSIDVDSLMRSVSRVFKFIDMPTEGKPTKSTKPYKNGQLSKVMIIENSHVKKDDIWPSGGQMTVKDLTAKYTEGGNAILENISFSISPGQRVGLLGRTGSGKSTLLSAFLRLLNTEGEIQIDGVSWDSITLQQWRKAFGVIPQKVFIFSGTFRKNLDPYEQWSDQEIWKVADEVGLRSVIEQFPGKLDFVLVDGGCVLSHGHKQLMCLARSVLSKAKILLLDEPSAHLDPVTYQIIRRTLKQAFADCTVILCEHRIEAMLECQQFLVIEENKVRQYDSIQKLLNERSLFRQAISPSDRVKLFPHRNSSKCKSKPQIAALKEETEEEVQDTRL
Assay: Membrane potential optical (FRET/VIPR) assay, identification of potentiator compounds
Assay type: cell-based
Conditions: Table 3; relative efficacy; assay not given
Text: […]
Measurement Name: % Activity

In [3]: df
Out[3]:
                            substance_smiles      observed_measurement
 0  COc1nc2ccccc2c(OC)c1C(=O)Nc1ccccc1C(C)(C)C  ++ (between 25% to 100%)
 1  COc1cc2[nH]cc(C(=O)Nc3cc(O)c(C(C)(C)C)cc3C(C)(C)C)c(=O)c2cc1F               +++ (>100%)
 2  CC(C)(C)c1ccc(NC(=O)c2c[nH]c3ccccc3c2=O)c(Cl)c1  ++ (between 25% to 100%)
 3  CCOc1ccccc1-c1cc2cc[nH]c2cc1NC(=O)c1c[nH]c2ccccc2c1=O  ++ (between 25% to 100%)
 4  O=C(Nc1cc(O)c(C23CC4CC(CC(C4)C2)C3)cc1F)c1cnc2ccccc2c1O  ++ (between 25% to 100%)
 5  CC(=O)n1ccc2ccc(NC(=O)c3c[nH]c4ccccc4c3=O)cc21  ++ (between 25% to 100%)
 6   N#CCc1ccc(NC(=O)c2c[nH]c3ccccc3c2=O)cc1                  + (<25%)
 7  O=C(Nc1cc(O)cc(C(F)(F)F)c1)c1c[nH]c2cccc(O)c2c1=O  ++ (between 25% to 100%)
 8  CC(C)COC(=O)NCC(C)(C)c1ccc(NC(=O)c2c[nH]c3ccccc3c2=O)cc1  ++ (between 25% to 100%)
 9  O=C(Nc1ccc(C(F)(F)F)nc1)c1c[nH]c2ccccc2c1=O                  + (<25%)
10  O=C(Nc1ccc(N2CCC2)cc1C(F)(F)F)c1c[nH]c2ccccc2c1=O  ++ (between 25% to 100%)
11  O=C(Nc1ccc(N2CC[C@@H](O)C2)cc1C(F)(F)F)c1c[nH]c2ccccc2c1=O  ++ (between 25% to 100%)
12  O=C(Nc1ccccc1-c1cc2ccccc2s1)c1c[nH]c2ccccc2c1=O  ++ (between 25% to 100%)
13    O=C(Nc1cccc2c1CCC2)c1c[nH]c2ccccc2c1=O  ++ (between 25% to 100%)
14  CC(C)(C)OC(=O)[C@H]1CCCN1c1ccc(NC(=O)c2c[nH]c3ccccc3c2=O)c(C(F)(F)F)c1               +++ (>100%)
15   Cc1ccc(NC(=O)c2c[nH]c3ccccc3c2=O)c(F)c1  ++ (between 25% to 100%)
16  Nc1cc(NC(=O)c2c[nH]c3ccccc3c2=O)c(Cl)cc1Cl  ++ (between 25% to 100%)
17  NS(=O)(=O)c1ccc(NC(=O)c2c[nH]c3ccccc3c2=O)cc1                  + (<25%)
18  O=C(Nc1ccccc1-c1ccncc1)c1c[nH]c2ccccc2c1=O  ++ (between 25% to 100%)
19  CC(C)c1ccc(NC(=O)c2c[nH]c3ccccc3c2=O)cc1N  ++ (between 25% to 100%)
20       CSc1ccccc1NC(=O)c1c[nH]c2ccccc2c1=O  ++ (between 25% to 100%)
21  O=C(Nc1cc(C(=O)O)c2cc[nH]c2c1)c1c[nH]c2ccccc2c1=O  ++ (between 25% to 100%)
22  CC(C)(C)c1cc2cc[nH]c2cc1NC(=O)c1c[nH]c2ccc(O)cc2c1=O  ++ (between 25% to 100%)
23  COc1cc(N2CCCC2)ccc1NC(=O)c1c[nH]c2ccccc2c1=O  ++ (between 25% to 100%)
24  NC(=O)c1cccc(NC(=O)c2c[nH]c3ccccc3c2=O)c1                  + (<25%)
25  O=C(Nc1ccc2cc[nH]c2c1)c1cnc2cc(C(F)(F)F)cc(C(F)(F)F)c2c1O  ++ (between 25% to 100%)
26  O=C(Nc1ccc2c(c1)NCC21CC1)c1c[nH]c2ccccc2c1=O  ++ (between 25% to 100%)
27  COC(=O)[C@]1(C)CCCN1c1ccc(NC(=O)c2c[nH]c3ccccc3c2=O)c(C(F)(F)F)c1               +++ (>100%)
28  CC(C)(C)c1cc(C(C)(C)C)c(NC(=O)c2c[nH]c3cc(F)c(F)cc3c2=O)cc1O  ++ (between 25% to 100%)
29  O=C(Nc1cccc(S(=O)(=O)N2CCCC2)c1)c1c[nH]c2ccccc2c1=O                  + (<25%)
30  CC(C)(C)c1cc(C(C)(C)C)c(NC(=O)c2c[nH]c3ccc(C#N)cc3c2=O)cc1O                  + (<25%)
31  O=C(Nc1ccccc1-c1nc(-c2ccc(Cl)cc2)no1)c1c[nH]c2ccccc2c1=O  ++ (between 25% to 100%)
32  O=C(Nc1ccc2[nH]nnc2c1)c1c[nH]c2ccccc2c1=O                  + (<25%)
33  O=C(Nc1cc2[nH]ccc2cc1-c1cccnc1)c1c[nH]c2ccccc2c1=O  ++ (between 25% to 100%)

* * *

Target: ΔF508-CFTR (Homo sapiens, UniProt P13569, DEL508-508)
Assay: Membrane potential optical (FRET/VIPR) assay, identification of potentiator compounds
Settings: Table 3; assay not given
pEC50: −log10 of the molar value.
Recorded pEC50 values for a group of compounds are listed next.
Measurement Name: pEC50

>>> df
                           substance_smiles  measurement_name  observed_measurement
0  O=C(Nc1ccc(C(F)(F)F)cn1)c1c[nH]c2ccccc2c1=O             pEC50          4.22 to 4.60
1  COc1cc(NC(=O)c2c[nH]c3ccc(F)cc3c2=O)cc(C(F)(F)F)c1             pEC50                > 5.00
2  O=C(Nc1ccc(Oc2cccnc2)cc1)c1c[nH]c2ccccc2c1=O             pEC50                > 5.00
3  O=C(Nc1cccc(C(F)(F)F)c1)c1c[nH]c2ccccc2c1=O             pEC50                > 5.00
4  N#Cc1ccc(-c2ccccc2NC(=O)c2c[nH]c3ccccc3c2=O)s1             pEC50                > 5.00
5  CCOc1ccc(-c2ccccc2NC(=O)c2c[nH]c3ccccc3c2=O)cc1             pEC50                > 5.00
6  CC(C)(C)c1cc(F)c(NC(=O)c2c[nH]c3ccccc3c2=O)cc1O             pEC50                > 5.00
7  CC(=O)Nc1cc(NC(=O)c2c[nH]c3ccccc3c2=O)ccc1C             pEC50          4.60 to 5.00
8  CCCCCc1ccc(NC(=O)c2c[nH]c3ccccc3c2=O)cc1             pEC50                > 5.00

* * *

# reported pEC50; entries follow
Molecular target: ΔF508-CFTR (Homo sapiens, UniProt P13569, DEL508-508)
Experiment: Membrane potential optical (FRET/VIPR) assay, identification of potentiator compounds
Conditions: Table 3; assay not given
pEC50: −log10 of the molar value.
Measurement Name: pEC50

>>> df
                                   compound  measurement_name  observed_measurement
0  CC1(c2ccc(NC(=O)c3c[nH]c4cccc(O)c4c3=O)cc2)COC1             pEC50                > 5.00
1  O=C(Nc1ccccc1-c1ccc(OC(F)(F)F)cc1)c1c[nH]c2ccccc2c1=O             pEC50                > 5.00
2  O=C(Nc1ccc2cn[nH]c2c1)c1c[nH]c2ccccc2c1=O             pEC50          4.60 to 5.00
3  Nc1cc(NC(=O)c2c[nH]c3ccccc3c2=O)c(Cl)cc1Cl             pEC50                > 5.00
4  O=C(Nc1ccc(N2CC[C@@H](O)C2)cc1C(F)(F)F)c1c[nH]c2ccccc2c1=O             pEC50                > 5.00
5  CC(C)(C)c1ccc(NC(=O)c2c[nH]c3ccccc3c2=O)cc1N1CCCC1             pEC50                > 5.00
6  CC(C)(C)c1cc(F)c(NC(=O)c2c[nH]c3ccc(Cl)cc3c2=O)cc1O             pEC50                > 5.00
7  COC(=O)NC1CCCc2ccc(NC(=O)c3c[nH]c4ccccc4c3=O)cc21 (centres unmarked)             pEC50          4.60 to 5.00
